Where these numbers come from: ChEMBL document CHEMBL1201862

System: RXF 393
Test: NCI tumour cell line growth inhibition, 48 h
Calls of active or inactive are those of the source. Rule as the data show it: active = GI50 up to about 1.1 µM and inactive = higher.
readout_name: GI50

> print(dat)
                                    compound  observed.measurement
 1          CCOC(=O)c1cn2c(n1)sc1cc(OC)ccc12    13.8 µM (inactive)
 2  O=C(Nc1ccc(Cl)cc1)c1cc(S(=O)(=O)Nc2nnc3c(Cl)cc(C(F)(F)F)cn23)c(S)cc1Cl   > 100 µM (inactive)
 3  Cc1ccc(S(=O)(=O)ON2C(=O)c3cccc4cc([N+](=O)[O-])cc(c34)C2=O)cc1    44.3 µM (inactive)
 4  COc1cc(/C=C2\C[C@H]3[C@@H]4CC=C5C[C@@H](N6CCCC6)CC[C@]5(C)[C@H]4CC[C@]3(C)[C@H]2OC(C)=O)cc(OC)c1OC    11.5 µM (inactive)
 5  CCCCCCCC[N+](C)(C)Cc1ccc(C[N+](C)(C)CCCCCCCC)cc1    78.7 µM (inactive)
 6  O=C(/C=C/c1ccc(-c2ccccc2)cc1)NCc1ccc(C(=O)NCCc2ccccc2)cc1    24.5 µM (inactive)
 7             CCOC(=O)CC(=O)C(=O)NN=C1NCCN1   > 100 µM (inactive)
 8  CCN(CC)C(=O)Cc1[nH][nH]c(=O)c1C(=O)N(CC)CC   > 100 µM (inactive)
 9  O=C(c1ccccc1)C(Nc1ccc2ccccc2c1)c1ccccc1 (stereo unspecified)  > 43.9 µM (inactive)
10  C=Cc1c(C)c2cc3nc(c4c5[nH]c(cc6nc(cc1[nH]2)C(C)=C6CC)c(C)c5C(=O)C4C(=O)OC)C(CCC(=O)OC)C3C (stereo unspecified)   > 100 µM (inactive)
11  CC(=O)C(C(c1ccccc1)N1CCOCC1)N1CCOCC1 (stereo unspecified)   > 100 µM (inactive)
